// reported TGI for each item listed
system: IGROV1 ovarian; assay: NCI tumour cell line growth inhibition, 48 h

>>> reported_value("CC(C)[Si](OCC1CC(C[C@H]2CC(C[C@H]3C[C@@H](CO[Si](C(C)C)(C(C)C)C(C)C)OC(C)(C)O3)OC(C)(C)O2)OC(C)(C)O1)(C(C)C)C(C)C (stereo partly drawn)")
"> 100 µM"

Prompt: # lookup: TGI of CC(=O)N1C(C(=O)NNc2ccccc2)CSC1c1ccccc1 (stereo not drawn)
Response: > 100 µM

Prompt: Try this compound too: O=C1/C(=C/c2ccc(Cl)cc2)N=C(c2ccccc2)N1C1Nc2cc3c(cc2S1)NC(N1C(=O)/C(=C/c2ccc(Cl)cc2)N=C1c1ccccc1)S3 (stereo not drawn)
Response: > 100 µM

Prompt: Try this compound too: `CCCCCCCCCCCCCCCCOC(=O)c1c(C)[nH]c(/C=C2\N=C(c3ccc[nH]3)C=C2OC)c1C`
Response: 9.4 µM

Prompt: Try this compound too: `Cc1ccc(NC(=O)COC(=O)c2cccc3c(=O)c4ccccc4[nH]c23)cc1`
Response: > 100 µM

Prompt: Try this compound too: `Cc1ccc(/C=C/C(=O)c2ccc(N)cc2)c(C)c1`
Response: 3.08 µM

Prompt: Try this compound too: `Cc1cc(O)ccc1O`
Response: 31 µM

Prompt: Try this compound too: `CN(C)CCCNC(=O)c1cc(NC(=O)c2cc(NC(=O)[C@H]3C[C@@H]3C(=O)Nc3cc(C(=O)Nc4cc(C(=O)NCCCN(C)C)n(C)c4)n(C)c3)cn2C)cn1C`
Response: > 100 µM

Origin of measurements: PubChem BioAssay (NCI)
